MEASURED TARGET: high affinity rolipram binding site of PDE 4
EXPERIMENT NOTES: [3H]-rolipram binding competition assay (high affinity form, HPDE 4)
CONDITION LABEL: competition for 1 nM [3H]-rolipram, rat brain high speed supernatants, 1 hour at 30° C.
ENDPOINT: pIC50
pIC50 field: float, defined as -log10 of concentration (mol/L).

Given COc1ccc([C@@H]2CC[C@H](C(=O)O)C2)cc1OC1CCCC1 (relative stereo) , respond with its pIC50.
7.68

---

MEASURED TARGET: low affinity form of PDE 4 (human monocyte PDE 4 / hrPDE) (Homo sapiens)
Construct: made in house; host or cells: yeast
EXPERIMENT NOTES: PDE 4 catalytic activity assay (low affinity form, LPDE 4)
Assay type: biochemical
CONDITION LABEL: HPDE 4 IC50/LPDE 4 IC50
ENDPOINT: High/Low Ratio (IC50 high affinity form divided by IC50 low affinity form)
Please give only the number in your answer, with no unit.

Send back low affinity form of PDE 4 (human monocyte PDE 4 / hrPDE) (Homo sapiens) High/Low Ratio (IC50 high affinity form divided by IC50 low affinity form) of COc1ccc([C@@H]2CC[C@H](C(=O)O)C2)cc1OC1CCCC1 (relative stereo) only.
0.0078

Provide High/Low Ratio (IC50 high affinity form divided by IC50 low affinity form), system low affinity form of PDE 4 (human monocyte PDE 4 / hrPDE) (Homo sapiens), entry CC(C)Cn1c(=O)n(C)c(=O)c2[nH]cnc21 [IBMX, reference compound]
0.698

Please report the measured High/Low Ratio (IC50 high affinity form divided by IC50 low affinity form) for CCOC(=O)C=C1C[C@H](c2ccc(OC)c(OC3CCCC3)c2)CN1 tested on low affinity form of PDE 4 (human monocyte PDE 4 / hrPDE) (Homo sapiens).
2.143

Fetch value of High/Low Ratio (IC50 high affinity form divided by IC50 low affinity form) on low affinity form of PDE 4 (human monocyte PDE 4 / hrPDE) (Homo sapiens) for NC(=O)C(=O)NCCc1ccc(OC(F)F)c(OC(F)F)c1 .
0.25

---

MEASURED TARGET: low affinity form of PDE 4 (human monocyte PDE 4 / hrPDE) (Homo sapiens, UniProt P27815)
Construct: made in house; host or cells: yeast
Sequence (P27815 1-686 isoform P27815-3): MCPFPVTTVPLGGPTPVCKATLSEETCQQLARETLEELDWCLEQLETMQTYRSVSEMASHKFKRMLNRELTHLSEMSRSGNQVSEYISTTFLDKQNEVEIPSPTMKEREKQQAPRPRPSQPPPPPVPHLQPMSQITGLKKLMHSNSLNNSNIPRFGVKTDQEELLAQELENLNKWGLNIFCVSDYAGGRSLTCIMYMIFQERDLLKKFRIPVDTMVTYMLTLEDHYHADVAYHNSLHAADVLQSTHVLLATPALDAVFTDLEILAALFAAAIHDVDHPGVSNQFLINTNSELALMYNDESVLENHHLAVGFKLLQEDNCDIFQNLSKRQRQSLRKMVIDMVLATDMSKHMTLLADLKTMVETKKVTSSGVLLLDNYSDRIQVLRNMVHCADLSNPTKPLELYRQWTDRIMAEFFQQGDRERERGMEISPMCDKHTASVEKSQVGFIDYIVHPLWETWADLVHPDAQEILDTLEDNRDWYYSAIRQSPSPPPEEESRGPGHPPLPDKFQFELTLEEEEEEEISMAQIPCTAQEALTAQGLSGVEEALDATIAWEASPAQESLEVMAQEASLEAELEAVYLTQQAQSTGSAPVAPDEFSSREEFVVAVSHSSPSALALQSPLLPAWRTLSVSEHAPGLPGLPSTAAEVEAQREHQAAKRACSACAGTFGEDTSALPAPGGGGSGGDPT
EXPERIMENT NOTES: PDE 4 catalytic activity assay (low affinity form, LPDE 4)
Type: biochemical
CONDITION LABEL: HPDE 4 IC50/LPDE 4 IC50
ENDPOINT: High/Low Ratio (IC50 high affinity form divided by IC50 low affinity form)
Please state the value as a number alone, without comment.

Could you please provide reported High/Low Ratio (IC50 high affinity form divided by IC50 low affinity form) for OCCN(CCO)c1nc(N2CCCCC2)c2nc(N(CCO)CCO)nc(N3CCCCC3)c2n1 [dipyridamole, reference compound] ? Thanks!
6.25

Using the record for COc1ccc(C2CN(Cc3ccc(N)cc3)C(=O)N2)cc1OC1CCCC1 (centres unmarked) , state its measured High/Low Ratio (IC50 high affinity form divided by IC50 low affinity form).
0.07

Indicate its recorded High/Low Ratio (IC50 high affinity form divided by IC50 low affinity form); the molecule in question is COc1ccc(CCNC(=O)C(N)=O)cc1OC1CCCC1
0.013

Give recorded High/Low Ratio (IC50 high affinity form divided by IC50 low affinity form). COc1ccc(C2CCC(c3nnn[nH]3)C2)cc1OC1CCCC1 (centres unmarked)
0.0018

Please indicate High/Low Ratio (IC50 high affinity form divided by IC50 low affinity form) recorded for COc1ccc(C2CCN(Cc3ccc(NC(=NC#N)SC)cc3)C2=O)cc1OC1CCCC1 (centres unmarked)
0.30
